Numbers sourced from ChEMBL document CHEMBL1817584.

# System: Aspergillus fumigatus
# assayDetails: Antifungal activity against Aspergillus fumigatus ATCC 96918 after 24 hrs by twofold serial dilution method
# Assay type: functional
# assayContext: ATCC 96918, 24 h
Consider the following compounds; for each one, report its MIC.
Quick reminder: number only, in mg/L, skip the unit.

GET /value?item= "OC(Cn1c[n+](Cc2ccc(Cl)cc2Cl)cn1)(Cn1c[n+](Cc2ccc(Cl)cc2Cl)cn1)c1ccc(F)cc1F.[Cl-].[Cl-]" &field=MIC returns 128

For OC(Cn1cncn1)(Cn1cncn1)c1ccc(F)cc1F [FLUCONAZOLE] the compound record lists MIC as 256

Noted for "O=C1c2cccc3c(Br)ccc(c23)C(=O)N1CCCCCCBr" : its MIC reads 256

Documented MIC of "O=C1c2cccc3c(Br)ccc(c23)C(=O)N1CCCBr" : 128

// "OC(Cn1c[n+](Cc2ccc(Cl)cc2)cn1)(Cn1c[n+](Cc2ccc(Cl)cc2)cn1)c1ccc(F)cc1F.[Cl-].[Cl-]" : MIC value = 64

Briefly, MIC measured for "OC(Cn1c[n+](Cc2ccc(Cl)cc2Cl)cn1)(Cn1c[n+](Cc2ccc(Cl)cc2Cl)cn1)c1ccc(F)cc1F.[Br-].[Br-]" : 128

Data point: "CCCCCCCC[n+]1cnn(Cc2ccc(F)cc2F)c1.[Br-]" ; MIC = 32

###

Kindly supply the reported MIC values for the records listed here.
# Test system: Staphylococcus aureus
# assayDetails: Antibacterial activity against methicillin-resistant Staphylococcus aureus N315 after 24 hrs by twofold serial dilution method
# Assay type: functional
# assayContext: N315, 24 h
Your answer is read as µg/mL, so omit the unit and give the number.

Reported MIC ( "OC(Cn1c[n+](CCOc2ccc3ccccc3c2)cn1)(Cn1c[n+](CCOc2ccc3ccccc3c2)cn1)c1ccc(F)cc1F.[Br-].[Br-]" ) = 32

Short answer for "OC(Cn1c[n+](Cc2cccc(Cl)c2)cn1)(Cn1c[n+](Cc2cccc(Cl)c2)cn1)c1ccc(F)cc1F.[Cl-].[Cl-]" : MIC was 32

For this compound ( "CCCCCCCCCCCC[n+]1cnn(CC(O)(Cn2c[n+](CCCCCCCCCCCC)cn2)c2ccc(F)cc2F)c1.[Br-].[Br-]" ), measured MIC is 32

MIC in this record for "O=C1c2cccc3c(Br)ccc(c23)C(=O)N1CCCCCCn1c[n+](Cc2ccc(F)cc2F)cn1.[Br-]" : 64

###

# System: Escherichia coli
# assayDetails: Antibacterial activity against Escherichia coli ATCC 8099 after 24 hrs by twofold serial dilution method
# Assay type: functional
# assayContext: ATCC 8099, 24 h
parameter: MIC (µg/mL)
Reply with just the number (in µg/mL).

Short answer for "BrCCOc1ccc2ccccc2c1" : MIC was 256

response.value for "OC(Cn1c[n+](Cc2ccccc2Cl)cn1)(Cn1c[n+](Cc2ccccc2Cl)cn1)c1ccc(F)cc1F.[Cl-].[Cl-]" (field: MIC) = 128

Short answer for "OC(Cn1c[n+](CCOc2ccc3ccccc3c2)cn1)(Cn1c[n+](CCOc2ccc3ccccc3c2)cn1)c1ccc(F)cc1F.[Br-].[Br-]" : MIC was 2

In plain terms, "OC(Cn1c[n+](Cc2ccc(Cl)cc2Cl)cn1)(Cn1c[n+](Cc2ccc(Cl)cc2Cl)cn1)c1ccc(F)cc1F.[Br-].[Br-]" has a documented MIC of 16

For record "OC(Cn1c[n+](Cc2cccc(Cl)c2)cn1)(Cn1c[n+](Cc2cccc(Cl)c2)cn1)c1ccc(F)cc1F.[Cl-].[Cl-]" the listed MIC is 32

# MIC (molecule: "OC(Cn1c[n+](Cc2ccc(F)cc2F)cn1)(Cn1c[n+](Cc2ccc(F)cc2F)cn1)c1ccc(F)cc1F.[Br-].[Br-]" ) is 64

// MIC value for "OC(Cn1c[n+](Cc2ccc(Cl)cc2Cl)cn1)(Cn1c[n+](Cc2ccc(Cl)cc2Cl)cn1)c1ccc(F)cc1F.[Cl-].[Cl-]" : 4

Lab book: MIC of "CCCCCCCCCCCCCCCC[n+]1cnn(CC(O)(Cn2c[n+](CCCCCCCCCCCCCCCC)cn2)c2ccc(F)cc2F)c1.[Br-].[Br-]" noted as 8

Given item "O=C1c2cccc3c(Br)ccc(c23)C(=O)N1CCCCCCn1c[n+](Cc2ccc(F)cc2F)cn1.[Br-]" , the value recorded as its MIC is 32

Reported MIC ( "O=C1c2cccc3c(Br)ccc(c23)C(=O)N1CCCCCC[n+]1cnn(CC(O)(Cn2c[n+](CCCCCCN3C(=O)c4cccc5c(Br)ccc(c45)C3=O)cn2)c2ccc(F)cc2F)c1.[Br-].[Br-]" ) = 8

Field MIC (entry "O=C1c2cccc3c(Br)ccc(c23)C(=O)N1CCCBr" ) reads 256

###

Exercise: for every item that follows, state its recorded MIC.
# Test system: Aspergillus fumigatus
# assayDetails: Antifungal activity against Aspergillus fumigatus ATCC 96918 after 24 hrs by twofold serial dilution method
# Type: functional
# assayContext: ATCC 96918, 24 h
Output spec: scalar in µg/mL, unitless text.

Reported MIC ( "O=C1c2cccc3c(Br)ccc(c23)C(=O)N1CCCCCCn1c[n+](Cc2ccc(F)cc2F)cn1.[Br-]" ) = 64

Consider "O=C1c2cccc3c(Br)ccc(c23)C(=O)N1CCCCCC[n+]1cnn(CC(O)(Cn2c[n+](CCCCCCN3C(=O)c4cccc5c(Br)ccc(c45)C3=O)cn2)c2ccc(F)cc2F)c1.[Br-].[Br-]" . Its measured MIC is 32

Item: "OC(Cn1c[n+](Cc2ccc(Cl)c(Cl)c2)cn1)(Cn1c[n+](Cc2ccc(Cl)c(Cl)c2)cn1)c1ccc(F)cc1F.[Cl-].[Cl-]" | MIC: 128

Lab note: "O=[N+]([O-])c1ccc(C[n+]2cnn(CC(O)(Cn3c[n+](Cc4ccc([N+](=O)[O-])cc4)cn3)c3ccc(F)cc3F)c2)cc1.[Br-].[Br-]" gave MIC of 128

MIC in this record for "Fc1ccc(Cn2c[n+](CCOc3ccc4ccccc4c3)cn2)c(F)c1.[Br-]" : 128

###

# Test system: Escherichia coli
# assayDetails: Antibacterial activity against Escherichia coli ATCC 8099 after 24 hrs by twofold serial dilution method
# Type: functional
# assayContext: ATCC 8099, 24 h
Cut-off 60 µg/mL on MIC: below means t, at or above means f.

## Input Regarding "CCCCCCCC[n+]1cnn(Cc2ccc(F)cc2F)c1.[Br-]" , kindly confirm whether its MIC is beneath 60 µg/mL.
## Output t

## Input Field: below-cutoff. Rule: recorded MIC strictly less than 60 µg/mL. Subject: "O=C1c2cccc3c(Br)ccc(c23)C(=O)N1CCCCCCn1cncn1"
## Output f

## Input Regarding "CCCC[n+]1cnn(CC(O)(Cn2c[n+](CCCC)cn2)c2ccc(F)cc2F)c1.[Br-].[Br-]" , kindly confirm whether its MIC is beneath 60 µg/mL.
## Output f

## Input Is it true that MIC reported for "Fc1ccc(Cn2c[n+](Cc3ccc(Cl)cc3Cl)cn2)c(F)c1.[Br-]" is less than 60 µg/mL?
## Output f

## Input Identify whether the molecule "CCCCCCCCCCCC[n+]1cnn(CC(O)(Cn2c[n+](CCCCCCCCCCCC)cn2)c2ccc(F)cc2F)c1.[Br-].[Br-]" records MIC below 60 µg/mL.
## Output t

## Input Strictly below 60 µg/mL in MIC? "F[P-](F)(F)(F)(F)F.F[P-](F)(F)(F)(F)F.OC(Cn1c[n+](Cc2ccc(Cl)cc2Cl)cn1)(Cn1c[n+](Cc2ccc(Cl)cc2Cl)cn1)c1ccc(F)cc1F"
## Output t

## Input Input "OC(Cn1c[n+](Cc2ccccc2)cn1)(Cn1c[n+](Cc2ccccc2)cn1)c1ccc(F)cc1F.[Br-].[Br-]" ; condition: MIC strictly below 60 µg/mL. Does it hold?
## Output f

## Input hey, is MIC for "O=[N+]([O-])c1ccc(C[n+]2cnn(CC(O)(Cn3c[n+](Cc4ccc([N+](=O)[O-])cc4)cn3)c3ccc(F)cc3F)c2)cc1.[Br-].[Br-]" lower than 60 µg/mL or not?
## Output f

## Input is_below(MIC, 60 µg/mL) for "Fc1ccc(Cn2c[n+](CCOc3ccc4ccccc4c3)cn2)c(F)c1.[Br-]" ?
## Output t

## Input is_below(MIC, 60 µg/mL) for "CCn1cc(C(=O)O)c(=O)c2cc(F)c(N3CCNCC3)cc21" ?
## Output t

## Input Field: below-cutoff. Rule: recorded MIC strictly less than 60 µg/mL. Subject: "CCCCCCCC[n+]1cnn(CC(O)(Cn2c[n+](CCCCCCCC)cn2)c2ccc(F)cc2F)c1.[Br-].[Br-]"
## Output t

## Input Strictly below 60 µg/mL: is that where MIC of "Cc1cccc(C[n+]2cnn(CC(O)(Cn3c[n+](Cc4cccc(C)c4)cn3)c3ccc(F)cc3F)c2)c1.[Br-].[Br-]" sits?
## Output f

## Input Does "OC(Cn1c[n+](Cc2ccc(Cl)cc2Cl)cn1)(Cn1c[n+](Cc2ccc(Cl)cc2Cl)cn1)c1ccc(F)cc1F.[I-].[I-]" have MIC strictly under 60 µg/mL?
## Output t

## Input Lab log: compare recorded MIC with 60 µg/mL; is it strictly lower for "O=C1c2cccc3c(Br)ccc(c23)C(=O)N1CCC[n+]1cnn(CC(O)(Cn2c[n+](CCCN3C(=O)c4cccc5c(Br)ccc(c45)C3=O)cn2)c2ccc(F)cc2F)c1.[Br-].[Br-]" ?
## Output t

## Input # check: MIC < 60 µg/mL for "OC(Cn1c[n+](Cc2ccc(Cl)c(Cl)c2)cn1)(Cn1c[n+](Cc2ccc(Cl)c(Cl)c2)cn1)c1ccc(F)cc1F.[Cl-].[Cl-]"
## Output t

## Input Is 60 µg/mL strictly greater than the molecule's reported MIC? molecule: "OC(Cn1c[n+](Cc2ccc(Cl)cc2)cn1)(Cn1c[n+](Cc2ccc(Cl)cc2)cn1)c1ccc(F)cc1F.[Cl-].[Cl-]"
## Output f
